- METHOD: in vitro
- RUN_PARAMETERS: Chinook salmon
REPORTED_METRIC: CC50

## Input Dear colleague, I am looking for the recorded CC50 of the following compound: "N[C@H](C(=O)O)[C@@H]1CC(Cl)=NO1"
## Output > 100 µg/mL
